biological target: Peptide 1: Biotin-…-[Tyr(PC)]-acid; assay: scFv ELISA
Sequence (peptide, as listed by the source): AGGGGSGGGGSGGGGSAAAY
metric: OD450

Data request, read-out OD450, for PcOxP_DB03_G02 (scFv, V domains shown, scFv in periplasmic extract) VH: EVQLLESGGGLVQPGGSLRLSCAASGFTFSDGYIEWVRQAPGKGLEWVAASRNKANDYTTEYADSVKGRFTISRDNSKNTLYLQMNSLRAEDTAVYYCARDYYGSSYWYFDVWGQGTLVTVSS VL: DIQMTQSPSSLSASVGDRVTITCTASEELYSSKHKVHYLAWYQQKPGKAPKLLIYGASNRYIGVPSRFSGSGSGTDFTLTISSLQPEDFATYYCAQFYSYPLTFGGGTKVEIK
1.33 OD450

Next:
Data request, read-out OD450, for PcOxP_DB01_B03 (scFv, V domains shown, scFv in periplasmic extract) VH: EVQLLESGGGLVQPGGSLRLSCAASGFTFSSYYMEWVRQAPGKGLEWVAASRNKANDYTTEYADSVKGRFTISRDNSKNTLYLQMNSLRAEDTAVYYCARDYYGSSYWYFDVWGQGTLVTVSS VL: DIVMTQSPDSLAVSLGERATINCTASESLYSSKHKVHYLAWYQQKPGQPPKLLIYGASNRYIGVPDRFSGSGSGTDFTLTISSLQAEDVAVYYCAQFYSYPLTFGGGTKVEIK
0.82 OD450
